- ASSAYED_TARGET: spleen tyrosine kinase (SYK) (Homo sapiens)
- RUN_DESCRIPTION: microscale thermophoresis (MST) with GFP-fused SYK in cell lysate
- Type: binding
- Set-up: SYK-EmerGFP (HEK293T lysate)
MEASURE_NAME: Kd (µM)
Express it in µM; write the number only.

Reported Kd of NC(=O)C1=CN([C@@H]2O[C@H](COP(=O)(O)OP(=O)(O)OC[C@H]3O[C@@H](n4cnc5c(N)ncnc54)[C@H](OP(=O)(O)O)[C@@H]3O)[C@@H](O)[C@H]2O)C=CC1 : 232

---

- ASSAYED_TARGET: spleen tyrosine kinase (SYK) (Homo sapiens)
- RUN_DESCRIPTION: microscale thermophoresis (MST) with GFP-fused SYK in cell lysate; supported by in vitro kinase activation of bacterially expressed SYK
- Type: binding
- Parameters: full-length SYK-EmerGFP (HEK293T lysate)
MEASURE_NAME: Kd (µM)
Express it in µM; write the number only.

Record Nc1ncnc2c1ncn2[C@@H]1O[C@H](COP(=O)(O)OP(=O)(O)O)[C@@H](O)[C@H]1O has spleen tyrosine kinase (SYK) (Homo sapiens) Kd equal to 42.4
